# System: Huh-7
# assay: Cytotoxic concentration of compound HC40 cells determined by using MTT assay
# Assay type: functional
# conditionDetails: Homo sapiens
experimentalEndpoint: CC50

Field: example entries. Status: answers known.
compound	targetDesc	CC50
Nc1ccc2c(c1)Oc1ncccc1C(=O)N2	Huh-7	> 10 µg/mL
CN(C)c1ccc(Nc2ccc(N(C)C)cc2)cc1	Huh-7	2.3 µg/mL
Nc1ccc2[nH]c3ccc(N)cc3c2c1	Huh-7	> 10 µg/mL

In: Item under review: Cc1cc2nc3ccc(N(C)C)cc3nc2cc1N . Reported CC50?
Out: > 10 µg/mL

In: State the recorded CC50 for this entry: Nc1cc2nc3ccccc3nc2cc1N
Out: > 10 µg/mL

In: Requested read-out: CC50. Entry: CC(=O)[O-].Nc1ccc2nc3ccc(N)cc3[s+]c2c1 [THIONIN ACETATE]
Out: 4.67 µg/mL

In: What value of CC50 has been reported for the following compound? Nc1ccc2c(c1)NC(=O)c1cc(N)cnc1O2
Out: > 10 µg/mL

In: Form field: reported CC50 of Cc1cc2nc3ccc(N(C)C)cc3nc2cc1I
Out: > 10 µg/mL

In: Can you share its CC50? I mean this compound: CCN(CC)c1ccc2[o+]c3cc(C)c(N)cc3nc2c1.[Cl-]
Out: < 1 µg/mL

In: Look up CC50: Cc1cc2nc3ccc(O)cc3nc2cc1N
Out: > 10 µg/mL

In: Fill in: CC50 of Cc1cc2c(cc1N)N(c1ccccc1C)c1cc(N(C)C)c(C)cc1N2 is ___
Out: > 10 µg/mL

In: Please look up its CC50: CN(C)c1ccc2c(c1)Sc1cc(N(C)C)ccc1N2C(=O)c1ccccc1
Out: > 10 µg/mL
